Values compiled from PubChem BioAssay (NCI).

# System: MDA-MB-468 breast
# Experiment description: NCI tumour cell line growth inhibition, 48 h; in the data active = GI50 below about 0.43 µM; inactive = the rest
Log the outcome using a class from active, inactive

Here's what some known entries look like.
Molecule | Discrete label
CCN(CC)c1ccc(/C=C2/NC(=O)NC2=O)cc1 | inactive
COc1ccc(C(=O)C(CN(C)C)c2ccccc2)cc1 (centres undefined) | inactive
COc1cc2cc(Oc3ccc(NC(=O)Nc4cc(C(F)(F)F)cc(C(F)(F)F)c4)cc3)c(C)nc2cc1OCCN1CCCCC1 | inactive
CCN(Cc1cccc(C)c1)c1ccc(CO)c(Cl)c1 | active
Nc1cc2ccncc2c2ccccc12 | inactive
COc1ccc(C2C3=C(COC3=O)N(CCO)c3cc4c(cc32)CCC4)cc1OC (centres undefined) | active
COc1ccc(Nc2ccnc3cc(Cl)ccc23)cc1CN(CCCl)CCCl | active
Cn1cc(-c2nnc(N)nc2-c2c[nH]c3ccc(F)cc23)c2cc(Br)ccc21 | inactive
CCN(CC)Cc1cc(Nc2c3ccc(Cl)cc3nc3c(C)cccc23)ccc1O | inactive
OCCNc1oc(-c2ccccc2)nc1[P+](c1ccccc1)(c1ccccc1)c1ccccc1 | inactive

Switching to the query record.
// query What outcome does the record of this test show for "O=C(N/N=C\c1cc(Br)cc(Br)c1O)N/N=C/c1cc(Br)cc(Br)c1O" ?
// result inactive

----------
# System: MDA-MB-468 breast
# Experiment description: NCI tumour cell line growth inhibition, 48 h
Our labelling divides records by TGI into ranges: low-valued: < 3 µM; mid-valued: ≥ 3 µM and < 6 µM; high-valued: ≥ 6 µM

Example cases with answers are listed next.
Compound | Discrete label
Cc1ccc(/C=C2\CN(C(=O)CCN3CCC(=NO)CC3)C/C(=C\c3ccc(C)cc3)C2=O)cc1 | mid-valued
CCN(CC)Cc1cc(Nc2c3ccc(Cl)cc3nc3c(C)cccc23)ccc1O | low-valued
COc1cc2c3c(n(CCCNCCO)c(=O)c2cc1OC)-c1nc2c(cc1C3=O)OCO2 | mid-valued
Cc1cccc(Cc2cnc(NC(=O)/C=C/c3ccco3)s2)c1 | high-valued
COc1ccc(C(=O)C(CN(C)C)c2ccccc2)cc1 (stereo not given) | mid-valued
O=C(N/N=C\c1cc(Br)cc(Br)c1O)N/N=C/c1cc(Br)cc(Br)c1O | high-valued

Shifting focus to the compound that follows.
// query Assign a bin to NC(=S)c1cn(C2OC(CO)C(O)C2O)c2ncnc(N)c12 (stereo not given)
// result low-valued

----------
# System: MDA-MB-468 breast
# Experiment description: NCI tumour cell line growth inhibition, 48 h
Result type: GI50

Molecule | Endpoint result
O=C(c1ccc(Cl)cc1)C1[C@H](c2ccccc2Br)[C@@H](c2ccccc2)NC12C(=O)Nc1ccc(Br)cc12 (stereo partly drawn) | 1.55 µM
N#CCCCCCn1c2ccccc2c2c3c(c4c5ccccc5[nH]c4c21)C(=O)N(O)C3=O | 1.48 µM

Now for another entry.
// query # lookup: GI50 of "Fc1ccc(-c2ncn(C3CCNCC3)c2-c2ccnc(Oc3ccc(Oc4ccccc4)cc3)n2)cc1"
// result 1.94 µM

----------
Parameter: log10 of TGI. Scope: all listed entries.
# Tested on: MDA-MB-468 breast
# Experiment description: NCI tumour cell line growth inhibition, 48 h
Answers are given as log10 of TGI in µM.

Entry smiles | log10 of TGI
Cn1cc(C2=C(c3cn(C)c4cc(Cl)ccc34)C(=O)NC2=O)c2ccccc21 | 0.78

// query Which log10 of TGI is reported with MDA-MB-468 breast for this entry: "Nc1ccc(Sc2ccc3c4c2cccc4c(=O)n2c4ccccc4nc32)cc1" ?
// result 1.32

----------
# System: MDA-MB-468 breast
# Experiment description: NCI tumour cell line growth inhibition, 48 h
Recorded measurements of TGI, one per entry
Numbers only; they are read as µM.

// known answers, use as guide
Entry smiles | TGI, µM
Nc1cc2ccncc2c2ccccc12 | 36.5
N#CCCCCCn1c2ccccc2c2c3c(c4c5ccccc5[nH]c4c21)C(=O)N(O)C3=O | 5.98
COc1cc2cc(Oc3ccc(NC(=O)Nc4cc(C(F)(F)F)cc(C(F)(F)F)c4)cc3)c(C)nc2cc1OCCN1CCCCC1 | 3.32

// query # returns recorded TGI (system: MDA-MB-468 breast) for "c1ccc(-c2nn(-c3ccccc3)[n+](-c3ccccc3-c3ccccc3)n2)cc1"
// result 0.923

// query Give recorded TGI with MDA-MB-468 breast for the following compound: "O=C(Nc1ccc(I)cc1F)c1cc(F)ccc1O"
// result 5.3

// query Give the reported TGI for "CCOC(=O)Nc1ccc2nc(Sc3ccc(Cl)cc3)sc2c1" (system: MDA-MB-468 breast).
// result 3.67
